Molecular target: human PD-1 (human) (UniProt Q15116)
Sequence (Q15116 25-288): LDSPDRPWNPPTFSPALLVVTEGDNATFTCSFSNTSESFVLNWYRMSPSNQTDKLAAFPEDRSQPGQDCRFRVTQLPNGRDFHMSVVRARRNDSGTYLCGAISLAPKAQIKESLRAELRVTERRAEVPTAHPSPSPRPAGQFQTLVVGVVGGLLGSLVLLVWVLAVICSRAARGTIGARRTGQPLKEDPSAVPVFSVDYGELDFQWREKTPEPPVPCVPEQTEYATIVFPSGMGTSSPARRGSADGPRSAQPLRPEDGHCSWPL

{"columns": ["Binder", "IFN gamma levels pg/mL (MLR)"],
 "data": [
  ["variant PD-L2 IgV I13V/H15Q/V89D Fc fusion (Fc fusion) LFTVTVPKELYIVEQGSNVTLECNFDTGSHVNLGAITASLQKVENDTSPHRERATLLEEQLPLGKASFHIPQVQVRDEGQYQCIIIYGDAWDYKYLTLKVKA", "1120 pg/mL"],
  ["variant PD-L2 IgV H15Q/T47A/S67L/Q82R/V89D Fc fusion (Fc fusion) LFTVTVPKELYIIEQGSNVTLECNFDTGSHVNLGAITASLQKVENDASPHRERATLLEEQLPLGKALFHIPQVQVRDEGQYRCIIIYGDAWDYKYLTLKVKA", "1200 pg/mL"],
  ["variant PD-L2 IgV H15Q/V89D Fc fusion (Fc fusion) LFTVTVPKELYIIEQGSNVTLECNFDTGSHVNLGAITASLQKVENDTSPHRERATLLEEQLPLGKASFHIPQVQVRDEGQYQCIIIYGDAWDYKYLTLKVKA", "1500 pg/mL"],
  ["variant PD-L2 IgV H15Q/Q72H/Q74R/R76G/I86T Fc fusion (Fc fusion) LFTVTVPKELYIIEQGSNVTLECNFDTGSHVNLGAITASLQKVENDTSPHRERATLLEEQLPLGKASFHIPHVRVGDEGQYQCIITYGVAWDYKYLTLKVKA", "934 pg/mL"]
]}

All values here come from patent US20250163127A1.
